SUBJECT_OF_TEST: reuptake of serotonine (5-HT) in synaptosomes (Rattus norvegicus)
Construct: in synaptosomes as described in WO 97/16451; from tissue
PROCEDURE_TEXT: Inhibition of serotonine (5-HT) reuptake in synaptosomes
Format: biochemical
ASSAY_CONTEXT: 3H-5-HT, synaptosomes; read-out: 5-HT-uptake IC50
ASSAY_READOUT: IC50 (nM)

compound="COc1ccc2cc(O[C@@H]3C[C@H]4C=C[C@@H](C3)N4C)ccc2c1 [3rd compound of method B]" test_value=480

====

SUBJECT_OF_TEST: reuptake of dopamine (DA) in synaptosomes (Rattus norvegicus)
Construct: in synaptosomes as described in WO 97/16451; from tissue
Sequence (P23977 whole entry): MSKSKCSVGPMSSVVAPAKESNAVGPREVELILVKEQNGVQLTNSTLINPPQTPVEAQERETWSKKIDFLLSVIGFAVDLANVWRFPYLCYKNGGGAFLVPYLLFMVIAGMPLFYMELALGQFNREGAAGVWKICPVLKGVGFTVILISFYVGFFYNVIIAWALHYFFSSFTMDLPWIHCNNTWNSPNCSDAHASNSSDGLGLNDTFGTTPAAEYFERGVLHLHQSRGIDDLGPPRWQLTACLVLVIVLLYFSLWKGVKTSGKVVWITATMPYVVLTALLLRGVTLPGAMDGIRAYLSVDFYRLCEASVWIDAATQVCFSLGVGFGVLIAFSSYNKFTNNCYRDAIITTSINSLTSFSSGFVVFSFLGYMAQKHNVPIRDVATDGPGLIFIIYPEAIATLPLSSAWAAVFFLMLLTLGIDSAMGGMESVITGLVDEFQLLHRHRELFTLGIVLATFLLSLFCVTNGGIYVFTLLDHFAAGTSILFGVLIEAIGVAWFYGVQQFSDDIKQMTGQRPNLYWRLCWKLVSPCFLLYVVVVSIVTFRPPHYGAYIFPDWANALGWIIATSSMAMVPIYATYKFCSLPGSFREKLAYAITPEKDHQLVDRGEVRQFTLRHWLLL
PROCEDURE_TEXT: Inhibition of dopamine (DA) reuptake in synaptosomes
Assay type: biochemical
ASSAY_CONTEXT: 3H-DA, synaptosomes; read-out: DA-uptake IC50
ASSAY_READOUT: IC50 (nM)

chemical_string=COc1ccc2cc(O[C@@H]3C[C@H]4C=C[C@@H](C3)N4C)ccc2c1 subject_of_test="reuptake of dopamine (DA) in synaptosomes (Rattus norvegicus)" unit_spec=nM test_value=110

====

SUBJECT_OF_TEST: reuptake of noradrenaline (NA) in synaptosomes (Rattus norvegicus, UniProt Q9WTR4)
Construct: in synaptosomes as described in WO 97/16451; from tissue
Sequence (Q9WTR4 1-597): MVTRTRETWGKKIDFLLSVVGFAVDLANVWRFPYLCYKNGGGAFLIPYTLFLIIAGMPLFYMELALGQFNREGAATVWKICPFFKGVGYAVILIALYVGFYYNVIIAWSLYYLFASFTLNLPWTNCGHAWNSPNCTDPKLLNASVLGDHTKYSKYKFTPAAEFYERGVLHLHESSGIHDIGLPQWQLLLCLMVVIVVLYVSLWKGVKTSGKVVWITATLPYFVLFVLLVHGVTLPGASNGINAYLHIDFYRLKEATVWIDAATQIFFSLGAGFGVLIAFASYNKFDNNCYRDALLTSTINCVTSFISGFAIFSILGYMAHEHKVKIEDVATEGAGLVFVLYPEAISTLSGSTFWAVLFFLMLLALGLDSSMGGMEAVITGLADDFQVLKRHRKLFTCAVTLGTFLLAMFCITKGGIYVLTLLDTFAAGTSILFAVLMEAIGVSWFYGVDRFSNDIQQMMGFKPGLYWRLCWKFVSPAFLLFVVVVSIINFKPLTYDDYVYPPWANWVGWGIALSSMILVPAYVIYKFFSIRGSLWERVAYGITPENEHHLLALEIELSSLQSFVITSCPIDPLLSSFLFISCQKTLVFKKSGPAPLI
PROCEDURE_TEXT: Inhibition of noradrenaline (NA) reuptake in synaptosomes
Type: biochemical
Entries annotated with measured IC50
ASSAY_READOUT: IC50 (nM)

chemical_string=Clc1ccc(O[C@@H]2C[C@H]3C=C[C@@H](C2)N3)cc1Br subject_of_test="reuptake of noradrenaline (NA) in synaptosomes (Rattus norvegicus, UniProt Q9WTR4)" unit_spec=nM test_value=110
chemical_string=Clc1ccc(O[C@@H]2C[C@H]3C=C[C@@H](C2)N3)cc1Cl subject_of_test="reuptake of noradrenaline (NA) in synaptosomes (Rattus norvegicus, UniProt Q9WTR4)" unit_spec=nM test_value=27

====

SUBJECT_OF_TEST: reuptake of serotonine (5-HT) in synaptosomes (Rattus norvegicus, UniProt P31652)
Construct: in synaptosomes as described in WO 97/16451; from tissue
Sequence (P31652 whole entry): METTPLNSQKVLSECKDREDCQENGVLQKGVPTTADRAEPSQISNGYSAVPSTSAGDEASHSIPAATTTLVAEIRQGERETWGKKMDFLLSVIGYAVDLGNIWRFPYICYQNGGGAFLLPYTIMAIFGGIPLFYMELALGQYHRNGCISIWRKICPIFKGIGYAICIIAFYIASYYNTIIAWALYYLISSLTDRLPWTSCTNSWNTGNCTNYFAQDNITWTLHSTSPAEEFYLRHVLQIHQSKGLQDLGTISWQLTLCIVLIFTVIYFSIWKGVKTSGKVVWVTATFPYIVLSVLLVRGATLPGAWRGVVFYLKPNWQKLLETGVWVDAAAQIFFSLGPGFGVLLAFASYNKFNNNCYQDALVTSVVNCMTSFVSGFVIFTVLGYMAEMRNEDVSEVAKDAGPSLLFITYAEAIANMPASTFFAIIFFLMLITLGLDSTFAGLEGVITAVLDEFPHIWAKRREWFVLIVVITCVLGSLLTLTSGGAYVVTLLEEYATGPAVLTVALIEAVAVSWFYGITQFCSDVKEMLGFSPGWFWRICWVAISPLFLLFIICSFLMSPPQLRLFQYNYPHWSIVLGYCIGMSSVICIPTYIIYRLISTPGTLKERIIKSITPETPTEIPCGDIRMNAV
PROCEDURE_TEXT: Inhibition of serotonine (5-HT) reuptake in synaptosomes
Type: biochemical
ASSAY_READOUT: IC50 (nM)

chemical_string=Clc1ccc(O[C@@H]2C[C@H]3C=C[C@@H](C2)N3)cc1Cl test_value=2.5
chemical_string=Clc1ccc(O[C@@H]2C[C@H]3C=C[C@@H](C2)N3)cc1Br test_value=21
